Source: the supplement of paper PMC12855868

B1: library; numbered along this chain (parent)
chain: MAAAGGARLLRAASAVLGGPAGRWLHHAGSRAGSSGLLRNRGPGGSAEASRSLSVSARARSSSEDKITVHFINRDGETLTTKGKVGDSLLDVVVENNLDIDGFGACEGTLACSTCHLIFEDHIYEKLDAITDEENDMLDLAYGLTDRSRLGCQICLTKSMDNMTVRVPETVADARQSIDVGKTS

Variants of: B1
Assay: scaled log2 fold change in cell abundance, elesclomol vs control (0 = silent mean, 1 = nonsense mean) (scaled log2 ratio); higher = higher viability under elesclomol (loss of FDX1 cuproptosis function);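 also: variant abundance is its share of total variant reads in each endpoint sample, from next-generation sequencing of the integrated ORF PCR-amplified out of genomic DNA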
Conditions: with ABC1 FDX1 KO; elesclomol 5 nM; glucose 10 mM; 14 days
Use MET when the recorded scaled log2 fold change is no lower than 0.2; use NOT MET when it is lower.

Known results for variants:
E64I; MET
E107I; MET
V93L; NOT MET
L110A; MET
A2G; MET
S56K; NOT MET

Problem: Is reported scaled log2 fold change greater than or equal to 0.2 here: R175Y
Result: MET

Problem: Is reported scaled log2 fold change greater than or equal to 0.2 here: K66I
Result: NOT MET

Problem: Is reported scaled log2 fold change greater than or equal to 0.2 here: R60E
Result: NOT MET

Problem: Is reported scaled log2 fold change greater than or equal to 0.2 here: L90H
Result: NOT MET

Problem: Is reported scaled log2 fold change greater than or equal to 0.2 here: G36D
Result: NOT MET
